Molecular target: renal dipeptidase (E.C.3.4.13.11) (Sus scrofa)
Construct: solubilized preparation of dipeptidase isolated from hog kidneys
Sequence (P22412 17-409): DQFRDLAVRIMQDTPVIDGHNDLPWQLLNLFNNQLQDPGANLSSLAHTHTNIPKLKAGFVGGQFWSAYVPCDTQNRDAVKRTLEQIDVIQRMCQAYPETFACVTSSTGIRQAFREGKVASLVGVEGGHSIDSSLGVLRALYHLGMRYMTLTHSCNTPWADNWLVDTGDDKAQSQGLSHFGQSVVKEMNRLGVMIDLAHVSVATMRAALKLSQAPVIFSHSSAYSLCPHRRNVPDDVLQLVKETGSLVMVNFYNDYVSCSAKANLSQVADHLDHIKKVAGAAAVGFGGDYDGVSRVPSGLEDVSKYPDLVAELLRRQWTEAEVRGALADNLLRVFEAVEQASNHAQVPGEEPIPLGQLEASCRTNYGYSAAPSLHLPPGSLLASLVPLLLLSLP
Test: Inhibition of GDP (glycyldehydrophenylalanine) hydrolysis by solubilized renal dipeptidase
pKi: −log10 of the molar value.
Reported endpoint: pKi

* CC1(C)CC1C(=O)N/C(=C\CCC(=O)O)C(=O)O (centres unmarked) | 6.84

[A] C/C=C(\NC(=O)CCCCC)C(=O)O
[B] CCCCCC/C=C(\NC(=O)C1CC1(C)C)C(=O)O (centres unmarked)
[C] C/C=C(\NC(=O)C1CC1)C(=O)O
[D] C/C=C(\NC(=O)CCCCCl)C(=O)O
Descending sort on pKi required. Put the labels in the order asked and list them. B, C, D, A

* * *

Target: renal dipeptidase (E.C.3.4.13.11) (Sus scrofa, UniProt P22412)
Construct: solubilized preparation of dipeptidase isolated from hog kidneys; from tissue; host or cells: hog (pig) kidney
Sequence (P22412 17-409): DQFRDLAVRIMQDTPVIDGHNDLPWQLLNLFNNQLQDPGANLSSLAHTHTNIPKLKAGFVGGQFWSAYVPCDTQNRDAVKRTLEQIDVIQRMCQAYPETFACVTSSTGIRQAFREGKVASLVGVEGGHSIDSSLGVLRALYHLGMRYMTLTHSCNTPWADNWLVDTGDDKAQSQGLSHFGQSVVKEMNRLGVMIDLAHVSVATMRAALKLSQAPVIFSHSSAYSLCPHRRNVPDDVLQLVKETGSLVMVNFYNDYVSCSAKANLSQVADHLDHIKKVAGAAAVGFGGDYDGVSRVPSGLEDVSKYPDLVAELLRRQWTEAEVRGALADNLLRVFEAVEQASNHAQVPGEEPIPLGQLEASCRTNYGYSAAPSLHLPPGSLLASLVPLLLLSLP
Assay: Inhibition of GDP (glycyldehydrophenylalanine) hydrolysis by solubilized renal dipeptidase
Assay type: biochemical, hog (pig) kidney
Settings: 10^-4 M inhibitor; GDP 0.05 mM; pH 7.1; 37° C.
Reported endpoint: inhibition at 100 µM (%)

Below, 10 compounds whose answers are already recorded.
- CC1(C)CC1C(=O)N/C(=C\CCC(=O)O)C(=O)O (centres unmarked) [Compound 51]: 98
- C/C=C(\NC(=O)C1CC1(C)C(C)C)C(=O)O (centres unmarked) [Compound 44]: 95
- C/C=C(\NC(=O)C(C)C)C(=O)O [Compound 32]: 31
- C/C=C(\NC(=O)CCCCCBr)C(=O)O [Compound 35]: 70
- C/C=C(\NC(=O)CC(C)(C)C)C(=O)O [Compound 18, Z-2-t-butylacetamido-2-butenoic acid]: 75
- C/C=C(\NC(=O)CC(C)CC(C)(C)C)C(=O)O (centres unmarked) [Compound 5]: 81
- C/C=C(\NC(=O)CC1CCC1)C(=O)O [Compound 9]: 83
- CC1(C)CC1C(=O)N/C(=C\CC1CCCCC1)C(=O)O (centres unmarked) [Compound 52]: 100
- C/C=C(\NC(=O)C1CC1CC)C(=O)O (centres unmarked) [Compound 43]: 96
- C/C=C(\NC(=O)CCC)C(=O)O [Compound 20, Z-2-butyramido-2-butenoic acid]: 69

[1] C/C=C(\NC(=O)CCCC)C(=O)O [Compound 23, Z-2-valeramido-2-butenoic acid]
[2] COCC/C=C(\NC(=O)C1CC1(C)C)C(=O)O (centres unmarked) [Compound 61]
I would appreciate it if you could say which entry, 1 or 2 , has the lower inhibition at 100 µM value. In your reply, give the label of the chosen option. 1

[I] CC1(C)CC1C(=O)N/C(=C\CCCC(=O)O)C(=O)O (racemic) [Compound 64]
[II] C/C=C(\NC(=O)CCC1CCCC1)C(=O)O [Compound 26]
Select the item whose inhibition at 100 µM value is smaller, choosing between I and II . In your reply, give the label of the chosen option. II
(II: 56%, I: 99%)

[I] C/C=C(\NC(=O)C1CC1C)C(=O)O (centres unmarked) [Compound 3]
[II] C/C=C(\NC(=O)CCCCC)C(=O)O [Compound 28, Z-2-hexanamido-2-butenoic acid]
# query: argmin of inhibition at 100 µM over I and II Your choice should be expressed through its label. II
(II: 54%, I: 92%)

[I] CCCCCC/C=C(\NC(=O)C1CC1(C)C)C(=O)O (centres unmarked) [Compound 56]
[II] C/C=C(\NC(=O)C1CCCC1)C(=O)O [Compound 24]
Hi! Which is lower in terms of inhibition at 100 µM, the first one I or the second one II ? Pick one and reply with its label. II
(II: 59%, I: 98%)

* * *

biological target: renal dipeptidase (E.C.3.4.13.11) (Sus scrofa, UniProt P22412); construct: solubilized preparation of dipeptidase isolated from hog kidneys; from tissue; host or cells: hog (pig) kidney; experiment: Inhibition of GDP (glycyldehydrophenylalanine) hydrolysis by solubilized renal dipeptidase; assay type: biochemical, hog (pig) kidney; settings: 10^-4 M inhibitor; GDP 0.05 mM; pH 7.1; 37° C.
Reported endpoint: inhibition at 100 µM (%)

- C/C=C(\NC(=O)CCCCCCC)C(=O)O [Compound 19, Z-2-octanamido-2-butenoic acid]: 72
- C/C=C(\NC(=O)CC(C)CCOC)C(=O)O (stereo not shown) [Compound 34]: 88

[1] CC1(C)CC1C(=O)N/C(=C\CCc1ccccc1)C(=O)O (stereo not shown) [Compound 53]
[2] C/C=C(\NC(=O)CCCCCl)C(=O)O [Compound 36, Z-2-(5-chlorovaleramido)-2-butenoic acid]
[3] C/C=C(\NC(=O)C(CC)CCCC)C(=O)O (stereo not shown) [Compound 30, Z-2-(2-Ethylhexanamido)-2-butenoic acid]
[4] C/C=C(\NC(=O)C(CCC)CCC)C(=O)O [Compound 31, Z-2-di-n-propylacetamido-2-butenoic acid]
Arrange these 4 compounds in increasing order of inhibition at 100 µM. Please respond by ranking the labels in the order requested. 4, 3, 2, 1

* * *

molecular target: renal dipeptidase (E.C.3.4.13.11) (Sus scrofa, UniProt P22412); construct: solubilized preparation of dipeptidase isolated from hog kidneys; from tissue; host or cells: hog (pig) kidney; experiment: Inhibition of GDP (glycyldehydrophenylalanine) hydrolysis by solubilized renal dipeptidase; type: biochemical, hog (pig) kidney; conditions: 10^-4 M inhibitor; GDP 0.05 mM; pH 7.1; 37° C.
Reported endpoint: inhibition at 100 µM (%)

Some entries whose results are on file:
- CCCCC/C=C(\NC(=O)CC(C)C)C(=O)O: 95
- CC(C)C/C=C(\NC(=O)C1CC1(C)C)C(=O)O (centres unmarked): 97
- C/C=C(\NC(=O)C1C(C)C1C)C(=O)O (centres unmarked): 83
- CC/C=C(\NC(=O)C1CC1(C)C)C(=O)O (centres unmarked): 98
- C/C=C(\NC(=O)C1CC1(C)C)C(=O)O (racemic) [Compound 2]: 98

[I] CC/C=C(\NC(=O)CC(C)C)C(=O)O
[II] C/C=C(\NC(=O)CCCCCC)C(=O)O
Problem: Given the entries I and II , determine which has the lower reported inhibition at 100 µM. Lab note: record the label of whichever item you select. II
(II: 49%, I: 87%)

* * *

assay: in vivo; design: species or system dog (male beagle); conditions: dog, iv, 5 mg/kg
Reported endpoint: dose excreted at 3 h (%)
The reply should be a number in %, with the unit left off.

So, C[C@@H](O)[C@H]1C(=O)N2C(C(=O)O)=C(SCCN=CN)C[C@H]12 ? Its dose excreted at 3 h was 7.8

* * *

molecular target: renal dipeptidase (E.C.3.4.13.11) (Sus scrofa); construct: solubilized preparation of dipeptidase isolated from hog kidneys; from tissue; host or cells: hog (pig) kidney; assay: Inhibition of GDP (glycyldehydrophenylalanine) hydrolysis by solubilized renal dipeptidase; format: biochemical, hog (pig) kidney; details: 10^-4 M inhibitor; GDP 0.05 mM; pH 7.1; 37° C.
Reported endpoint: inhibition at 100 µM (%)

Here are 4 compounds together with their reported answers.
* CC(C)/C=C(\NC(=O)C1CC1(C)C)C(=O)O (stereo not shown) | 96
* CSCC/C=C(\NC(=O)C1CC1(C)C)C(=O)O (stereo not shown) | 99
* C/C=C(\NC(=O)CC1CC1)C(=O)O | 64
* C/C=C(\NC(=O)CCC1CCCCC1)C(=O)O | 54

[1] O=C(O)CC/C=C(\NC(=O)C1CC1)C(=O)O
[2] C/C=C(\NC(=O)CCCCC(C)C)C(=O)O
Of 1 and 2 , which carries the smaller reported inhibition at 100 µM figure? Give the label under which the chosen entry appears. 2
